- Target system: Interleukin-5 (Mus musculus) (UniProt P04401)
- Sequence (whole entry): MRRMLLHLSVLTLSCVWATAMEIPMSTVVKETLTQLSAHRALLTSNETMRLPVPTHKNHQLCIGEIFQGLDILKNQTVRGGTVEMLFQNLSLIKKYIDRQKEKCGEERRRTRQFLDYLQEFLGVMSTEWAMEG
- Assay remarks: Inhibition of mouse IL5-mediated mouse Y16 cell proliferation at 30 uM after 48 hrs by WST1 assay
Measurement label: inhibition (%)

Known inhibition results, listed for orientation:
Compound structure | Unit | inhibition
CC(=O)OCc1c(C2CCCCC2)oc2ccc(NS(=O)(=O)c3ccccc3)cc2c1=O | % | 5
O=C(Nc1ccc2oc(-c3ccccc3)c(CO)c(=O)c2c1)c1ccccc1 | % | 71
CC(=O)OCc1c(-c2ccccc2)oc2ccc(NC(=O)c3cnccn3)cc2c1=O | % | 15
CC(=O)OCc1c(C2CCCCC2)oc2ccc(NC(=O)c3ccccc3)cc2c1=O | % | 95
CC(C)(C)C(=O)OCc1c(C2CCCCC2)oc2ccc(NC(=O)c3ccccc3)cc2c1=O | % | 5
CC(=O)OCc1c(C2CCCCC2)oc2ccc(NC(=O)Nc3ccccc3)cc2c1=O | % | 25
O=C(Nc1ccc2oc(-c3ccccc3)c(CO)c(=O)c2c1)c1cnccn1 | % | 23
CC(=O)OCc1c(C2CCCCC2)oc2ccc(NC(=O)C3CCCCC3)cc2c1=O | % | 80

1: O=C(Nc1ccc2oc(-c3ccccc3)c(CO)c(=O)c2c1)C1CCCCC1
2: CC(=O)OCc1c(-c2ccccc2)oc2ccc(NC(=O)c3ccccc3)cc2c1=O
Returns the identifier with the smallest measured inhibition among 1 and 2 . The response must carry the label of the picked entry. 1
(1: 35%, 2: 79%)
